Protocol: clinical
Reported Conditions: male, human, semen, po, 10 mg
Property Name: concentration at 6 h

C[S+]([O-])CCCCN=C=S (stereo not shown)    2.6 to 5.5 ng/mL

====

Protocol: clinical
Reported Conditions: male, human, prostatic fluid obtained by massage, po, 10 mg
Method: The drug concentration of SFA in vivo was determined in 9 cases of the 115 patients: the patients took 10 mg of SFA orally every day for 3 consecutive days.
Property Name: concentration at 6 h

C[S+]([O-])CCCCN=C=S (stereo not shown) [SFA, Sulforaphane]    13.5 to 22.8 ng/mL

====

Protocol: clinical
Reported Conditions: male, human, blood, po, 10 mg
Property Name: concentration at 6 h

C[S+]([O-])CCCCN=C=S (stereo not shown) [SFA, Sulforaphane]    50.6 to 182 ng/mL
